- Test system: left auricle (LA)
- methodNotes: Isolated left auricle, inotropic effect
- Design: species or system rat (male Wistar)
- conditionContext: Rattus norvegicus; stimulated electrically at 3 Hz
reportedEndpoint: log10 IC50 (log10 of the value in µM)
The base-10 logarithm of IC50, taken with IC50 in µM, is what appears here.

compound	targetDesc	log10 IC50
COc1ccc(C(C#N)(CCCN(C)CCc2ccc(OC)c3c2CCCN3C(C)=O)C(C)C)cc1OC (centres unmarked)	left auricle (LA)	0.90
COc1ccc(CCN(C)CCCC(C#N)(c2ccc(OC)c(OC)c2)C(C)C)cc1OC (centres unmarked) [Verapamil, verapamil, reference compound]	left auricle (LA)	0.30
COc1cccc(C(C#N)(CCCN(C)CCc2ccc(OC)c3c2CCCN3C(C)=O)Sc2ccccc2)c1 (centres unmarked)	left auricle (LA)	1.91
COc1ccc(C(C#N)(CCCN(C)CCc2ccc(OC)c3c2CCCN3C(C)=O)Sc2ccccc2)cc1OC (centres unmarked)	left auricle (LA)	0.74

# input for lookup
What the record says about COc1cccc(C(C#N)(CCCN(C)CCc2ccc(OC)c3c2CCCN3C(C)=O)C(C)C)c1 (centres unmarked) : log10 IC50 is 0.72

Each recorded value in this set is attributed to patent US4792559A.
